# Assay Target: T1, LARP6 (ITC) (UniProt Q9BRS8 70-295)
# T1 sequence: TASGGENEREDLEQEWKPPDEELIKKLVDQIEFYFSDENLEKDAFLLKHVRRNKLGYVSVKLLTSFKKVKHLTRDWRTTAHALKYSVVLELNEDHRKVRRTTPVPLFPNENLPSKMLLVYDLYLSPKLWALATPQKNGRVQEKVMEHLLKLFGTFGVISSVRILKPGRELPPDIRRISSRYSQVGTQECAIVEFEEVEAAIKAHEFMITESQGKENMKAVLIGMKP
# Protocol Summary: ITC
Experimental Endpoint: Kd

Enquiry: What does the record list as Kd for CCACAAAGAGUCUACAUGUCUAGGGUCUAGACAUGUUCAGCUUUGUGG (structured_RNA) [A1 (COL1A1 5'SL)] ?
Return: > 400 nM
